src = patent US7008953B2

test system: Rho-dependent protein kinase (ROCK-II); experiment: Panel of protein kinases: ROCK-II; type: biochemical; settings: method of Davies et al.
OBSERVATION TYPE: Kinase ROCK-II inhibition

INSERT INTO results (line_notation, result) VALUES
  ('CCNCc1cncc(-c2ccc3[nH]nc(-c4nc5c(NC(C)=O)cccc5[nH]4)c3c2)c1C', '− (Weak inhibition <50%)'),
  ('CCNCc1cncc(-c2ccc3[nH]nc(-c4nc5c(F)cc(F)cc5[nH]4)c3c2)c1C', '− (Weak inhibition <50%)');

----------
target: UniProtKB P17252; assay: Panel of protein kinases: PKCa; assay type: biochemical; conditions: method of Davies et al.
OBSERVATION TYPE: Kinase PKCa inhibition

INSERT INTO measurements (line_notation, result) VALUES
  ('CCNCc1cncc(-c2ccc3[nH]nc(-c4nc5c(F)cc(F)cc5[nH]4)c3c2)c1C', '− (Weak inhibition <50%)'),
  ('CCNCc1cncc(-c2ccc3[nH]nc(-c4nc5cc(F)ccc5[nH]4)c3c2)c1C', '− (Weak inhibition <50%)'),
  ('CCNCc1cncc(-c2ccc3[nH]nc(-c4nc5c(NC(C)=O)cccc5[nH]4)c3c2)c1C', '− (Weak inhibition <50%)');
